The origin of these recorded values is PubChem BioAssay AID1845213.

- Test system: NCI-H841 complex tumor spheroid viability
- Experiment Notes: Anticancer human tumor NCI-H841 cell line growth inhibition;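 note: spheroids exposed to compounds for 7 days before readout; 100% = DMSO vehicle control wells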
- Test Parameters: second compound 94.9 pM; first compound 0.0949 µM; hits give low values

{"columns": ["Molecule", "Target Desc", "viability, T/C [%]"],
 "data": [
  ["Cn1ncnc1[C@H]1c2n[nH]c(=O)c3cc(F)cc(c23)N[C@@H]1c1ccc(F)cc1 + COc1cc2c(cc1O)CCNC21CSC2c3c(OC(C)=O)c(C)c4c(c3C(COC1=O)N1C(O)C3Cc5cc(C)c(OC)c(O)c5C(C21)N3C)OCO4", "NCI-H841 complex tumor spheroid viability", 66.1],
  ["CNCc1ccc(-c2cc(-c3nc(-c4ccc(S(=O)(=O)C(C)C)cc4)cnc3N)on2)cc1 + COc1cc2c(cc1O)CCNC21CSC2c3c(OC(C)=O)c(C)c4c(c3C(COC1=O)N1C(O)C3Cc5cc(C)c(OC)c(O)c5C(C21)N3C)OCO4", "NCI-H841 complex tumor spheroid viability", 66.2],
  ["O=C(c1cc(Cc2n[nH]c(=O)c3ccccc23)ccc1F)N1CCN(C(=O)C2CC2)CC1 + COc1cc2c(cc1O)CCNC21CSC2c3c(OC(C)=O)c(C)c4c(c3C(COC1=O)N1C(O)C3Cc5cc(C)c(OC)c(O)c5C(C21)N3C)OCO4", "NCI-H841 complex tumor spheroid viability", 97.5],
  ["Cc1sc2c(c1C)C(c1ccc(Cl)cc1)=NC(CC(=O)Nc1ccc(O)cc1)c1nnc(C)n1-2 (centres undefined) + COc1cc2c(cc1O)CCNC21CSC2c3c(OC(C)=O)c(C)c4c(c3C(COC1=O)N1C(O)C3Cc5cc(C)c(OC)c(O)c5C(C21)N3C)OCO4", "NCI-H841 complex tumor spheroid viability", 74.9]
]}
